Data origin: patent US8685977B2

# measurement target: Nav1.7 (or SCN9A) channel (Homo sapiens)
# Construct: expressed in transfected cells
# Sequence (Q15858 whole entry): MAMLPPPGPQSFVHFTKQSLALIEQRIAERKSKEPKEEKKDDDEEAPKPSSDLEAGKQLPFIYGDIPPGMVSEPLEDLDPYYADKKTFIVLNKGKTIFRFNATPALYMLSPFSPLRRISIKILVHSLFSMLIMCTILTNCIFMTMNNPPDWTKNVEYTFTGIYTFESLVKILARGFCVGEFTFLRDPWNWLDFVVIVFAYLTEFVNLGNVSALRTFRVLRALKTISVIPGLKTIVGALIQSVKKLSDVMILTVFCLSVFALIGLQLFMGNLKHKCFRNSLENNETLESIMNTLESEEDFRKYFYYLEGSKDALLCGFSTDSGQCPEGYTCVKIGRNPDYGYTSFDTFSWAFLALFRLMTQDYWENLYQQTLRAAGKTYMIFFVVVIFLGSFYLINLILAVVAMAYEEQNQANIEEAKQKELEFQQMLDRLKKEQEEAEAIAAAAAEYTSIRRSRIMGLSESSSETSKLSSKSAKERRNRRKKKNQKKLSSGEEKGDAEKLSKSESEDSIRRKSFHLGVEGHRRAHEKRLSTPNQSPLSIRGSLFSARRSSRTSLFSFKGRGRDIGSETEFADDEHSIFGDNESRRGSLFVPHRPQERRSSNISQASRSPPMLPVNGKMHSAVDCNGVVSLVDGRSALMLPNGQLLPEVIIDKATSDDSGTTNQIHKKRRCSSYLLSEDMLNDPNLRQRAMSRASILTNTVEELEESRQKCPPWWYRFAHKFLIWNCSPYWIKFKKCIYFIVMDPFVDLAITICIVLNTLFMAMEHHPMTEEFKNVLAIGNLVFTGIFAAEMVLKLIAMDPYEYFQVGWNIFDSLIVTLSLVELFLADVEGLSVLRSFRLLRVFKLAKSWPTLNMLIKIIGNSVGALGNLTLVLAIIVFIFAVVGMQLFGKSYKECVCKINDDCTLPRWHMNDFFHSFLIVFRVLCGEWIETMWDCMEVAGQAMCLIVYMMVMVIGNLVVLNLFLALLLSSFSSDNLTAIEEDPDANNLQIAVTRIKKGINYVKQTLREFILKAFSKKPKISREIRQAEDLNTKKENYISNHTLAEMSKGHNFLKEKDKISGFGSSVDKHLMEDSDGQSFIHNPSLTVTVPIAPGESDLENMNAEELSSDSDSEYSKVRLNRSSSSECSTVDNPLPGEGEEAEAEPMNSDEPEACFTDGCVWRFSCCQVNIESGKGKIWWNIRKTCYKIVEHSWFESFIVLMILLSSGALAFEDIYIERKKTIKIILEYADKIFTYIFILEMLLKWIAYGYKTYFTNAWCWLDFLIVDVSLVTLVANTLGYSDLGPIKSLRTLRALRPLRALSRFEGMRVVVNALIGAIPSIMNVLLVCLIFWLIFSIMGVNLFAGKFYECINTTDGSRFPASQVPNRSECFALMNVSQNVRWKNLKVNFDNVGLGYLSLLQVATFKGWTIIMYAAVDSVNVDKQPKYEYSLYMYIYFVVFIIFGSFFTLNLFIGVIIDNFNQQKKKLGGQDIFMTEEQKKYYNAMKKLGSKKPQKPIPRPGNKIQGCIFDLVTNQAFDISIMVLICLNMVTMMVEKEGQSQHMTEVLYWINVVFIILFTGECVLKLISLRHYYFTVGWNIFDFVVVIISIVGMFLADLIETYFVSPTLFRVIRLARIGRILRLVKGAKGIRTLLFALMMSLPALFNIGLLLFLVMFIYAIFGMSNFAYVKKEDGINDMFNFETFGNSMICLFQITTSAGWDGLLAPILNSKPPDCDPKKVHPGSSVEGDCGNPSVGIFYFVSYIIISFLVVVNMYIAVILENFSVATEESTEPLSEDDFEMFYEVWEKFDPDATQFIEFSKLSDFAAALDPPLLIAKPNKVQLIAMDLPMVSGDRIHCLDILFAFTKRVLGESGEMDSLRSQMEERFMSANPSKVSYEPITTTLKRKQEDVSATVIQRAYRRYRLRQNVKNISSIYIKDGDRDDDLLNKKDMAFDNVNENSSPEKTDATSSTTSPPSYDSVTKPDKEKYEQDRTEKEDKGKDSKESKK
# protocol summary: Nav1.7 PatchXpress 7000 automated electrophysiology assay (HEK cells stably expressing hSCN9A)
# Assay type: cell-based
# measurement context: voltage-clamped at V1/2 of inactivation, read-out: Nav1.7 EIC50
pIC50: −log10 of the molar value.
Reported pIC50 is given for each of the following compounds.

Worked set:
| smiles | readout value |
| --- | --- |
| COc1ccc(Oc2cc(F)c(C(=O)NS(C)(=O)=O)cc2F)c(C#N)c1 | < 5.52 |
| COc1cc(C)ccc1Oc1cc(F)c(C(=O)NS(C)(=O)=O)cc1F | < 6.00 |

Sample Cc1ccc(Cl)cc1Oc1cc(F)c(C(=O)NS(C)(=O)=O)cc1F — what was its pIC50? < 5.52
